tested on: LXRa homodimer (NR concentration 270 nM); assay: PBM binding z-score (relative to random genomic background probes); higher = stronger binding; sequences stand for … in GC…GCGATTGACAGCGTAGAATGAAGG
What PBM binding z-score was measured for each of the following?
In your answer, state the number alone without any accompanying words.

CCGAGTAGGTTACGAGGGGGCATTCATTGCGAAT yielded PBM binding z-score of 1.16

CGATCTAGGTCACCAGGACAGTGAAGAGGTTGGA yielded PBM binding z-score of 0.00222

CCTACTGGGCCGAGGTCATTGATCAGTCAAAGCA yielded PBM binding z-score of 1.15

CGAACTAGGTCACCAGGACAGTGAAGAGGTTGGA yielded PBM binding z-score of -0.071

GATACAGGGTCAAGGCCAGAGTACGCGTATTGAT yielded PBM binding z-score of 0.173
